# study-system: cannabinoid peripheral type (CB2) receptor (Rattus norvegicus, UniProt Q9QZN9)
# Construct: rat cerebellar membrane fraction and spleen cells were respectively used; from tissue; host or cells: rat spleen cells (male SD rats, 7-9 weeks old)
# test-description: Binding assay, cannabinoid peripheral type receptor (CB2), rat spleen cells, [3H]Win55212-2
# condition-details: ratio of Ki central receptor (C) to Ki peripheral receptor (S)
test-readout: C/S
Quick one: just the number, no unit, thanks!

Known C/S results, listed for orientation:
compound: CCCCCOc1cc(/C=C/C(=O)NCCc2ccc(O)cc2)ccc1OCC [Example 1-2]
C/S: 222
//
compound: CCCCCSc1cc(/C=C/C(=O)NCCc2ccc(O)cc2)ccc1OC [Example 1-34]
C/S: 845

Kindly review the next compound as well.
// query C/S value for entry CCCCCOc1c(OC)ccc2c1CN(CCc1ccc(N)cc1)C2=O [Example 7-37]
93

====

# study-system: cannabinoid peripheral type (CB2) receptor (Rattus norvegicus)
# Construct: rat cerebellar membrane fraction and spleen cells were respectively used; from tissue; host or cells: rat spleen cells (male SD rats, 7-9 weeks old)
# Sequence (Q9QZN9 1-360): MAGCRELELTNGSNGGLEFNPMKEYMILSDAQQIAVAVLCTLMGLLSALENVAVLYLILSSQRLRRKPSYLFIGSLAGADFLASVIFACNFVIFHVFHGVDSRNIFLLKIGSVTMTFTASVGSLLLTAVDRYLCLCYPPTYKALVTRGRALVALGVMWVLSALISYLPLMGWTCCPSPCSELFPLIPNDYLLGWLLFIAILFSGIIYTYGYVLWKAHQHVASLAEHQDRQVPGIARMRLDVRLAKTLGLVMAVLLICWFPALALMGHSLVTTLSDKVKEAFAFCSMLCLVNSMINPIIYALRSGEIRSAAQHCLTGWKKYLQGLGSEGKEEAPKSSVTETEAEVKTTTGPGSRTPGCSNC
# test-description: Binding assay, cannabinoid peripheral type receptor (CB2), rat spleen cells, [3H]Win55212-2
# Method: [I] Binding Assay (in vitro) As the sample rich in cannabinoid central type (CB1) and peripheral type (CB2) receptors, rat cerebellar membrane fraction and spleen cells were respectively used (male SD rats, 7-9 weeks old). […] A scintillation solution (Packard, Microsint-20) was added, and the radioactivity of the samples was determined (Packard, Top count A9912V). […]
Structures can show the parent of a compound that is named as a salt.
test-readout: Ki (nM)
Report only the number, with the unit nM understood.

Field request: Ki | item: CCCCCOc1c(OC)ccc2c1CCN(CCc1ccc(N)cc1)C2=O [Example 7-38, hydrochloride]
9.9

====

# study-system: cannabinoid peripheral type (CB2) receptor (Rattus norvegicus, UniProt Q9QZN9)
# Construct: rat cerebellar membrane fraction and spleen cells were respectively used; from tissue; host or cells: rat spleen cells (male SD rats, 7-9 weeks old)
# Sequence (Q9QZN9 1-360): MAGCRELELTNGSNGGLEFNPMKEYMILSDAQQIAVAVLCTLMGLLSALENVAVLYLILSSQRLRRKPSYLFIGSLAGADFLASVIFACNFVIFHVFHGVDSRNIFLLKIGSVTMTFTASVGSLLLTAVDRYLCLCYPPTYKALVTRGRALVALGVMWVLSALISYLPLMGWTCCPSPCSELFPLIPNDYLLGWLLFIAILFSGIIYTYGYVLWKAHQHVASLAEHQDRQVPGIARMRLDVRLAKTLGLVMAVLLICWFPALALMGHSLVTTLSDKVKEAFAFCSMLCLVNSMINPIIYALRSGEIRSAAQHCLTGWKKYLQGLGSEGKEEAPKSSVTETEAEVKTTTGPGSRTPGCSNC
# test-description: Binding assay, cannabinoid peripheral type receptor (CB2), rat spleen cells, [3H]Win55212-2
# condition-details: ratio of Ki central receptor (C) to Ki peripheral receptor (S)
Listing: C/S of selected molecules
Give a plain numeric answer without units written out.

What does the data say about its C/S? Entry: CCCCCOc1ccc2c(c1OCCCCC)CN(CCc1ccc(N)cc1)C2=O [Example 7-34]
3000

====

# study-system: cannabinoid central type (CB1) receptor (Rattus norvegicus, UniProt P20272)
# Construct: rat cerebellar membrane fraction and spleen cells were respectively used; from tissue; host or cells: rat cerebellar membrane fraction (male SD rats, 7-9 weeks old)
# Sequence (P20272 whole entry): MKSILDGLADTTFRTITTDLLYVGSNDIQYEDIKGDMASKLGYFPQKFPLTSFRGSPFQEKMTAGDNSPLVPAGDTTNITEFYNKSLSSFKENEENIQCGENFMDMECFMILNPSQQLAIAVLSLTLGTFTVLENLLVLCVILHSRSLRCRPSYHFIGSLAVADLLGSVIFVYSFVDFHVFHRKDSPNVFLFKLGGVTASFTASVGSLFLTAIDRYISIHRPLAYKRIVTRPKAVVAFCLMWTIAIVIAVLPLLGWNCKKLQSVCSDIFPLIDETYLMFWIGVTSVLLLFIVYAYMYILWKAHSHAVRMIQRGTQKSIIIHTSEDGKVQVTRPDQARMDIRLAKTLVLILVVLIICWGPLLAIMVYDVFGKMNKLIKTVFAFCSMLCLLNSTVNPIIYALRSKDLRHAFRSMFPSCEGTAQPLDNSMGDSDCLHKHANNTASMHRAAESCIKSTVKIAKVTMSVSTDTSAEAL
# test-description: Binding assay, cannabinoid central type receptor (CB1), rat cerebellar membrane fraction, [3H]Win55212-2
test-readout: pKi
pKi is a log-scale quantity: -log10 of the concentration expressed in molar.

Recorded pKi, per entry:
compound: CCCCOc1cc(/C=C/C(=O)NCCc2ccc(O)cc2)ccc1OC
pKi: 6.02

compound: CCCCCOc1cc(/C=C/C(=O)NCCc2ccc(O)cc2)ccc1OC
pKi: 6.64

compound: CCCCCOc1cc(C(=O)NCCc2cccc(O)c2)ccc1OC
pKi: 5.25

Give the measured pKi of `CCCCCOc1cc(C(=O)NCCc2ccc(O)cc2)ccc1OCC` .
5.96

Fill in the blank: the reported pKi of `CCCCCNc1c(OC)ccc2c1CN(CCc1ccc(O)cc1)C2=O` is ____.
7.96

Quick one: pKi for `CCCCCSc1cc(/C=C/C(=O)NCCc2ccc(O)cc2)ccc1OC` ?
6.03

====

# study-system: cannabinoid peripheral type (CB2) receptor (Rattus norvegicus)
# Construct: rat cerebellar membrane fraction and spleen cells were respectively used; from tissue; host or cells: rat spleen cells (male SD rats, 7-9 weeks old)
# test-description: Binding assay, cannabinoid peripheral type receptor (CB2), rat spleen cells, [3H]Win55212-2
# condition-details: rat spleen cells, [3H]Win55212-2 2 nM, 4° C. 360 min; read-out: Ki value, Peripheral receptor (S)
test-readout: pKi
Worth noting: pKi values are minus log10 of concentrations stated in mol/L.

Answered cases to consult:
compound: CCCCOc1cc(/C=C/C(=O)NCCc2ccc(O)cc2)ccc1OC
pKi: 8.11
//
compound: CCCCCCOc1cc(C(=O)NCCc2ccc(O)cc2)ccc1OC
pKi: 8.43
//
compound: CCCCCOc1cc(OC)ccc1/C=C/C(=O)N1CCOCC1
pKi: 8.08
//
compound: CCCCCOc1cc(/C=C/C(=O)NCCc2ccc(O)cc2)ccc1OCC
pKi: 8.74

GET /values?readout=pKi&item= `CCCCCOc1cc(C(=O)NCCc2ccc(O)cc2)ccc1OCC`
8.96

I have this compound here, `CCCCCOc1c(OC)ccc(C2=NC(C)(C)CO2)c1CO` , and I need its recorded pKi.
7.96

====

Readings of pKi for the listed compounds
# study-system: cannabinoid central type (CB1) receptor (Rattus norvegicus, UniProt P20272)
# Construct: rat cerebellar membrane fraction and spleen cells were respectively used; from tissue; host or cells: rat cerebellar membrane fraction (male SD rats, 7-9 weeks old)
# test-description: Binding assay, cannabinoid central type receptor (CB1), rat cerebellar membrane fraction, [3H]Win55212-2
Counter-ions that a name gives are not always drawn.
# pKi is unitless: minus log10 of the molar concentration; print number only

Known pKi results, listed for orientation:
compound: CCCCCOc1c(OC)ccc2c1CCN(CCc1ccc(N)cc1)C2=O [Example 7-38, hydrochloride]
pKi: 6.66
//
compound: CCCCCOc1ccc2c(c1OCCCCC)CN(CCc1ccc([N+](=O)[O-])cc1)C2=O
pKi: 5.59

# lookup: pKi of `CCCCCOc1cc(OC)ccc1/C=C/C(=O)N1CCOCC1`
6.25

Which pKi value is on record for `CCCCCOc1cc(/C=C/C(=O)NCCc2ccc(O)cc2)ccc1OCC` ?
6.40

Item `CCCCCNc1cc(/C=C/C(=O)NCCc2ccc(N)cc2)ccc1OC` has what recorded pKi?
6.80

// query pKi value for entry `CCCCCCOc1cc(C(=O)NCCc2ccc(O)cc2)ccc1OC`
6.00

Entry `CCCCCOc1ccc2c(c1OCCCCC)CN(CCc1ccc(N)cc1)C2=O` : reported pKi = ?
6.48

I'd like to know its pKi. The compound in question is `CCCCCOc1cc(/C=C/C(=O)N[C@@H](Cc2ccc(O)cc2)C(=O)OC)ccc1OC`
6.32

====

# study-system: cannabinoid peripheral type (CB2) receptor (Rattus norvegicus)
# Construct: rat cerebellar membrane fraction and spleen cells were respectively used; from tissue; host or cells: rat spleen cells (male SD rats, 7-9 weeks old)
# test-description: Binding assay, cannabinoid peripheral type receptor (CB2), rat spleen cells, [3H]Win55212-2
# condition-details: ratio of Ki central receptor (C) to Ki peripheral receptor (S)
Structures can show the parent of a compound that is named as a salt.
test-readout: C/S
Note: the reply should be a number with no unit written.

Item under review: CCCCOc1cc(C(=O)NCCc2ccc(O)cc2)ccc1OC [Example 2-7] . Reported C/S?
263

What measured C/S goes with CCCCOc1cc(/C=C/C(=O)NCCc2ccc(O)cc2)ccc1OC [Example 1-4] ?
125

Look at this molecule and give its reported C/S. CCCCCOc1c(OC)ccc2c1CCN(CCc1ccc(N)cc1)C2=O [Example 7-38, hydrochloride]
22

Could you tell me which C/S is on file for CCCCCCOc1cc(C(=O)NCCc2ccc(O)cc2)ccc1OC [Example 2-8] ?
270

Endpoint output: C/S of CCCCCOc1cc(C(=O)NCCc2cccc(O)c2)ccc1OC [Example 2-13] . Value?
849

Dear colleague, I am looking for the recorded C/S of the following molecule: CCCCCOc1ccc2c(c1OCCCCC)CN(CCc1ccc([N+](=O)[O-])cc1)C2=O [Example 7-30]
1440

Query (molecule): CCCCCOc1cc(C(=O)NCCc2ccc(O)cc2)ccc1OC [Example 2-1] ; field requested: C/S
560

Suppose we examine the molecule CCCCCOc1c(OC)ccc(C2=NC(C)(C)CO2)c1CO [Example 6-4] ; what C/S value has been reported?
59

Look up C/S for this molecule: CCCCCOc1c(OC)ccc2c(=O)n(CCc3ccncc3)ccc12 [Example 7-20]
48

Endpoint output: C/S of CCCCCNc1c(OC)ccc2c1CN(CCc1ccc(O)cc1)C2=O [Example 7-31] . Value?
125
